Data credit: PubChem BioAssay AID743395

Method summary: HepG2 cell cytotoxicity, dose response, cytotoxicity control, CellTiter-Glo luminescence, cherry-pick, set 2 (AID 743395)
Condition description: HepG2 viability, CellTiter-Glo ATP luminescence, 72 h; series mostly up to 26 µM
Hit rate of the full screen: of about 1,200 compounds, about 480 (40%) were called active. The set was probably picked from earlier hits. Only a sample is shown. Entries with a potency or affinity are not part of this list.
Measured metric: outcome

Consider the reported outcome for these compounds:
Cc1ccc(C(=O)Nc2cccc(C(F)(F)F)c2)cc1Nc1cnccn1 :: inactive
CN(CC(=O)NCCc1ccc(S(N)(=O)=O)cc1)CC(=O)Nc1ccc(Cl)c(C(F)(F)F)c1 :: inactive
CC(=O)c1cc(NC(=O)c2cccc(C(F)(F)F)c2)c(=O)oc1C :: inactive
COc1cccc2cc(C(=O)NCCN3CCOCC3)c(=O)oc12 :: inactive
COc1ccc(C(=O)OCc2nc(N)nc(Nc3ccccc3C)n2)cc1OC :: inactive
Cc1ccc(C(=O)OCC(=O)NCc2cc(C)c(O)c(C)c2)cc1S(=O)(=O)N1CCCCC1 :: inactive

For the 4 compounds below, give their outcome values.
1. COc1cccc(/C=N/NC(=O)C(=O)N/N=C/c2cccc(OC)c2O)c1O
2. O=C(Nc1ccn(CCCNC2CCN(Cc3ccccc3)CC2)c(=O)n1)OCc1ccccc1
3. COc1ccc(NC(=O)c2ccc(OCC3CCCO3)cc2)cc1OC (stereo not given)
4. CC(=O)N1Cc2cc(C(=O)NCC(F)(F)F)nc(-c3cccc(-c4cccnc4)c3)c2[C@@H]1CCO

### Response
1. inactive
2. inactive
3. inactive
4. inactive
